Data provenance is patent US20070259907A1.

endpointLabel: melting point

Query :: For the compound shown here, CCCc1nc2c(N)nc3ccc(-c4ccc(NC(C)=O)cc4)cc3c2s1 [Example 137] , give the reported melting point.
Result :: 251 to 254 °C

Query :: For the compound shown here, CCCc1nc2c(N)nc3cc(-c4cccc(C(=O)N5CCOCC5)c4)ccc3c2s1 [Example 4] , give the reported melting point.
Result :: 190 to 193 °C

Query :: For the compound shown here, CCCc1nc2c(N)nc3cc(-c4ccccc4C(N)=O)ccc3c2s1 [Example 47] , give the reported melting point.
Result :: 274 to 276 °C

Query :: For the compound shown here, CCCc1nc2c(N)nc3cc(-c4cccc(CO)c4)ccc3c2s1 [Example 1] , give the reported melting point.
Result :: 186 to 188 °C

Query :: For the compound shown here, CCCc1nc2c(N)nc3ccc(-c4cccc(NC(C)=O)c4)cc3c2s1 [Example 135] , give the reported melting point.
Result :: 242 to 245 °C

Query :: For the compound shown here, CCCc1nc2c(N)nc3ccc(-c4ccc(CN)cc4)cc3c2s1 [Example 143] , give the reported melting point.
Result :: 225 to 226 °C

----------
# maps each entry to its melting point

Query :: For the compound shown here, CCCc1nc2c(N)nc3cc(-c4cccc(C(=O)NC5CC5)c4)ccc3c2s1 [Example 45] , give the reported melting point.
Result :: 251 to 254 °C

Query :: For the compound shown here, CCCc1nc2c(N)nc3cc(-c4ccc(NC(C)=O)cc4)ccc3c2s1 [Example 44] , give the reported melting point.
Result :: 252 to 255 °C

Query :: For the compound shown here, CCCc1nc2c(N)nc3ccc(-c4cccc(CN)c4)cc3c2s1 [Example 142] , give the reported melting point.
Result :: 189 to 191 °C

Query :: For the compound shown here, CCCc1nc2c(N)nc3cc(-c4cccc(C(=O)N(CC)CC)c4)ccc3c2s1 [Example 42] , give the reported melting point.
Result :: 169 to 172 °C

Query :: For the compound shown here, CCCc1nc2c(N)nc3cc(-c4cccc(NC(C)=O)c4)ccc3c2s1 [Example 49] , give the reported melting point.
Result :: 173 to 176 °C

Query :: For the compound shown here, CCCc1nc2c(N)nc3cc(-c4cccc(S(C)(=O)=O)c4)ccc3c2s1 [Example 48] , give the reported melting point.
Result :: 242 to 245 °C

Query :: For the compound shown here, CCCc1nc2c(N)nc3ccc(-c4cccc(CO)c4)cc3c2s1 [Example 140] , give the reported melting point.
Result :: 176 to 177 °C

Query :: For the compound shown here, CCCc1nc2c(N)nc3ccc(-c4ccc(F)cc4CN)cc3c2s1 [Example 136] , give the reported melting point.
Result :: 198 to 201 °C

Query :: For the compound shown here, CCCc1nc2c(N)nc3cc(-c4cccc(CN)c4)ccc3c2s1 [Example 50] , give the reported melting point.
Result :: 168 to 171 °C
